Reported pKd values are given for each entry in this list.
# measurement-target: T1, recombinant mouse IL22R1 (mouse IL22R ECD) (mouse, UniProt Q80XZ4 16-230, biotinylated in the ELISA of Table 4)
# T1 construct: extracellular domain; also called mIL22R; mIL22R1
# T1 sequence (looked up): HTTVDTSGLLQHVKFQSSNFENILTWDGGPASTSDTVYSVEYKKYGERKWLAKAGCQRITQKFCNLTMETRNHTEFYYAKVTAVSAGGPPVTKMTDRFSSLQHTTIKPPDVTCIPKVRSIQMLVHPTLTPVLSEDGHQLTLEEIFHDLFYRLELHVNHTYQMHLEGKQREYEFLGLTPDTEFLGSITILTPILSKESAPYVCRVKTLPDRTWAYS
# run-description: Biacore, mIL22R
Please keep in mind that pKd is minus log10 of the molar concentration; only the number is needed.

Use the examples below as a reference point.
| binder | pKd |
| --- | --- |
| 197D3 (antibody, V domains shown, Vkappa-shuffled clone of 170B2 (keeps the 170B2 VH-CH1); also called VK_197D3) VH: EVQLVESGGGLVQPGGSLRLSCAASGFTFSSSWMYWVRQAPGKGLEFVSVINTRSGITHYVESVKGRFTISTDNAKNTLFLQMNSLKSEDTAVYYCATRIQGLIDYWGQGTQVTVSS VL: DIQMTQSPSSLSASLGDRVTVTCQASQSIRSSLNWYQQKPGQAPKLLIYGASRLRIGVPSRFSGSASGTSFTLTISGVEAEDLATYYCLQEYAWPLTFGQGTKVELK | 9.43 |
| 196C2 (antibody, V domains shown, Vkappa-shuffled clone of 170B2 (keeps the 170B2 VH-CH1); also called VK_196C2) VH: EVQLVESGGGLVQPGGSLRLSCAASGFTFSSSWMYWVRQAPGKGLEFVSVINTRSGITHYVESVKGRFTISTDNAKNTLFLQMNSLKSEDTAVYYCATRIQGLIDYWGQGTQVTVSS VL: DIQMTQSPSSLSASLGDRVTITCQASQSISSLLAWYQQKPGQAPKLLIYGASRLQTGVPSRFSGSGSGTSFTLTISGVEAEDLATYYCLQDYSWPLTFGQGTKVELK | 9.35 |

Read the entry 197G10 (antibody, V domains shown, Vkappa-shuffled clone of 170B2 (keeps the 170B2 VH-CH1); also called VK_197G10) VH: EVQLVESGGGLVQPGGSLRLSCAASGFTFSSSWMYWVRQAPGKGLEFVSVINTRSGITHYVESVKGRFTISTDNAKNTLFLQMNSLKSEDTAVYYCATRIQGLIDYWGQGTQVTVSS VL: DIQMTQSPSSMSASLGDSVTISCQASENIGTQLFWYQQNAGQPPKLLIYGASRLQTGVPSRFSGSGSGTTFTLTISGVETGDLATYYCLQDYSWPLTFGQGTKVELK and write its reported pKd.
9.35
